# credit: PubChem BioAssay AID485395

I'd be grateful if you could share measured inhibition for these entries.
System: replicative DNA helicase (DnaC/DnaB), Staphylococcus aureus
Test: S. aureus DnaC helicase unwinding inhibition – biochemical, fluorescence unwinding readout, primary screen (AID 485395);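 also: 0% = mean of negative control wells and 100% = mean of positive control wells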
Conditions: purified S. aureus helicase, fluorescence unwinding assay; active compounds read high; concentration not given here
Hit rate of the full screen: of about 120,000 compounds, about 55 (0.05%) were called active. What follows is part of a selection rich in actives, with near analogues and random picks from the rest.
The response must be a number in % with no trailing unit.

input: I have this compound here, `Cc1sc2nc(CN3CCCC3)nc(NC(C)C)c2c1C` , and I need its recorded inhibition.
output: -5

input: Fill in the blank: the reported inhibition of CCOC(=O)c1c2c(n(-c3ccccc3)c1N)OC(=N)C(C#N)C2c1ccc(Br)cc1 (stereo not drawn) is ____.
output: -19

input: # lookup: inhibition of `COc1ccc(-n2nc(C(=O)NCC(=O)N3CCOCC3)c3ccccc3c2=O)cc1`
output: -25

input: Look up inhibition: `CC(C)Cn1c(SCC(=O)Nc2ccccc2)nc2ccccc21`
output: 14

input: Quick one: inhibition of `CCc1ccccc1NC(=O)Cn1ncc2c(=O)oc3ccccc3c21` ?
output: 4

input: Reported inhibition, compound `Cc1ccc(-n2nc(C)c(C(=O)N(Cc3ccccc3)C(C)C)c2-n2cccc2)cc1` : ____
output: 22

input: Would you kindly share the measured inhibition for COc1cccc(C2NC(=O)NC(C)=C2C(=O)c2ccccc2)c1 (stereo not drawn) ?
output: -13

input: # lookup: inhibition of CC1=C(C(=O)NCCC(C)C)C2(CCC(C)CC2)OC1=O (stereo not drawn)
output: 1

input: I have this compound here, `Cc1cc(NC(=O)COC(=O)C2=COCCO2)n(-c2ccccc2)n1` , and I need its recorded inhibition.
output: 4

input: Returns the measured inhibition for the input compound. Input: `CCOc1ccc2nc(NC(=O)c3ccccc3OC)sc2c1`
output: -8

input: Can you share its inhibition? I mean this compound: `Clc1cccc2c(N3CCN(Cc4ccccc4)CC3)cnnc12`
output: 17

input: Tell me the measured inhibition of `Cc1c(/C=N/NC(N)=S)c2ccccc2n1C` , please.
output: -2

input: Please give the measured inhibition for this compound: `NC(=O)Cn1c(=O)n(Cc2ccco2)c(=O)c2ccccc21`
output: 16

====

Tested on: replicative DNA helicase (DnaC/DnaB), Staphylococcus aureus
Experiment: S. aureus DnaC helicase unwinding inhibition – biochemical, fluorescence unwinding readout, primary screen (AID 485395);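 also: 0% = mean of negative control wells and 100% = mean of positive control wells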
Details: purified S. aureus helicase, fluorescence unwinding assay; active compounds read high; concentration not given here
About 55 (0.05%) of roughly 120,000 compounds were called active. For the sample, actives were picked, then their nearest neighbours and some compounds at random.
metric: inhibition (%)
I only need the number, in %, no unit after it.

input: May I ask what inhibition has been recorded for `Cc1ccc(C)c(OC(=O)NC(C)(C(F)(F)F)C(F)(F)F)c1C` ?
output: 1

input: What inhibition value was documented for this molecule, `Cc1cc(C)cc(NC(=O)N2CCC3(CC2)OCCO3)c1` ?
output: 24

input: What does the record list as inhibition for CC(Sc1nncn1C)C(=O)NCCC1=CCCCC1 (configuration not stated) ?
output: 9

input: Endpoint output: inhibition of `Cc1nc(-c2cccs2)sc1C(=O)Nc1ccccc1` . Value?
output: -5

input: Quick one: inhibition for `CCCSc1nnc(Nc2ccccc2OC)s1` ?
output: -21

input: Request the reported inhibition associated with `Cc1cc(=O)n(-c2cccc(C(F)(F)F)c2)[nH]1`
output: -1

input: Requested field: inhibition. Item: `Cc1ccc(C(=O)COC(=O)c2cc3cc(Br)ccc3oc2=O)cc1`
output: -19

input: Given C1=C(c2ccccc2)Nc2ncnn2C1c1ccco1 (configuration not stated) , state its recorded inhibition.
output: -1

input: Which inhibition is reported for this molecule? `CCc1n[nH]c(=S)n1/N=C1\C(=O)N(CC(C)C)c2ccccc21`
output: 1

input: Can you share its inhibition? I mean this molecule: `CCOC(=O)c1sc2nc(CN3CCCCC3)nc(NC3CC3)c2c1C`
output: 16

input: Record request: inhibition value, item `Cc1ccc(CN(C)C(=O)c2n[nH]c3ccccc23)o1`
output: -4

input: Return reported inhibition; argument: `CCOc1ccc(CCNC(=O)Nc2ccc(C)c(C)c2)cc1OCC`
output: -3
